- system.name: IDO1 (Homo sapiens, UniProt P14902)
- Construct: HeLa cells were treated with a test compound in the presence of IFNγ, which induces IDO1 expression; endogenous in cells
- Sequence (P14902 whole entry): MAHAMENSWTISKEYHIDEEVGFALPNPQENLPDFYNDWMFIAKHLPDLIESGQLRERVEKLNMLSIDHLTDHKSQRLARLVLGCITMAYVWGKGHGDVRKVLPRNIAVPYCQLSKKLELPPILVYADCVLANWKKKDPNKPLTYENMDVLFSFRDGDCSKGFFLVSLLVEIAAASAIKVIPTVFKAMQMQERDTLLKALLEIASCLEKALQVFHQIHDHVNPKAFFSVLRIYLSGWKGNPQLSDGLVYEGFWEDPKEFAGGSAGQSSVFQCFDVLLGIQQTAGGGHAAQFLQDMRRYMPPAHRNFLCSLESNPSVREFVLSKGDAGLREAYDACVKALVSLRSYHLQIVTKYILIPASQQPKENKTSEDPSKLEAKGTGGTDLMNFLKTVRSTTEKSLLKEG
- assay: Cell-based (HeLa) assay for measurement of IDO1 inhibition (kynurenine levels in supernatant after IFNγ induction)
- condition.notes: H1-HeLa cells, IFNγ-induced IDO1, 48 hour incubation, kynurenine absorbance at 480 nm; geometric mean of a minimum of four determinations
Could you please mark True for values of EC50 below 200 nM and False for values at or above it?

{"record.smiles": "O=C(Nc1ccc(F)cc1)c1cc(-c2cccn3c(-c4cnccn4)ncc23)ccc1C(F)(F)F", "system.name": "IDO1 (Homo sapiens, UniProt P14902)", "cat": "True"}
{"record.smiles": "Cc1ncc(-c2cccn3c(C4CCCCC4)ncc23)cc1C(=O)Nc1ccc(F)cc1", "system.name": "IDO1 (Homo sapiens, UniProt P14902)", "cat": "False"}

### Prompt Could you please tell me whether EC50 recorded for Cc1ccc(-c2cccn3c(-c4cccnc4C)nnc23)cc1C(=O)Nc1ccc(F)cc1 is less than 200 nM?
### Response False

### Prompt Could you please tell me whether EC50 recorded for Cc1ncc(-c2cccn3c(-c4ncccn4)ncc23)cc1C(=O)Nc1ccc(F)cc1 is less than 200 nM?
### Response True

Source listed as patent US11040033B2.
